test system: GLC4 cell line; test: Cytotoxic effect against GLC4 (human small cell lung carcinoma cell line) using the microculture tetrazolium (MTT) assay based on 2 hr incubation; assay type: functional; conditions: glc4
value.type: IC50 (µM)
Quick reminder: number only, in µM, skip the unit.

Query: Which IC50 is listed for `CISPLATIN` ?
Result: 4.6

* * *

system: GLC4 cell line; experiment: Cytotoxic effect against GLC4 (human small cell lung carcinoma cell line) using the microculture tetrazolium (MTT) assay based on continuous incubation; assay type: functional; details: glc4
value.type: pIC50
Keep it numeric: pIC50 is minus log10 of the concentration in mol/L.

Query: Which pIC50 is listed for `CISPLATIN` ?
Result: 5.96
